# Target or test system: JAK3 (JH1 and JH2 domain) (Homo sapiens)
# Sequence (P52333 521-1111 limits assumed): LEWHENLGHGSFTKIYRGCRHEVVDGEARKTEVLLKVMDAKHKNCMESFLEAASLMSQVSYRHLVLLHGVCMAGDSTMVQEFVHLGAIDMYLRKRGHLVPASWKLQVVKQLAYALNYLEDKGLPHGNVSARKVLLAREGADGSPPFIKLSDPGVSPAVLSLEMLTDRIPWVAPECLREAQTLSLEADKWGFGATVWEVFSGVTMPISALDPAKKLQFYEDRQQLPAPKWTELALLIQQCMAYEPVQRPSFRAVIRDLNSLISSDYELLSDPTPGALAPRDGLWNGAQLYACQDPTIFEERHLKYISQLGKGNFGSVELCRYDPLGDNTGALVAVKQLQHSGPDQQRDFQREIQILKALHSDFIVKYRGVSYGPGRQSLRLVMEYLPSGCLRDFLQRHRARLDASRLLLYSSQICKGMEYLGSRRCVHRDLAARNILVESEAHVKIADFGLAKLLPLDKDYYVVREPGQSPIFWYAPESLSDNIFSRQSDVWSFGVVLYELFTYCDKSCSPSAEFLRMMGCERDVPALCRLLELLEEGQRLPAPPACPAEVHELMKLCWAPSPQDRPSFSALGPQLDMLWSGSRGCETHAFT
# Experiment notes: JAK3 Kinase Assay (ELISA of peptide substrate phosphorylation)
# Particulars: purified JAK3 enzyme, 10 μM ATP, biotinylated peptide substrate, 1 hour at room temperature
Measured parameter: pIC50
Scale note: pIC50 = -log10(concentration in M).

Lab note: compound CN(C)CCN(Cc1ccccc1)C(=O)OC1Cn2c3ccccc3c3c4c(c5c6ccccc6n(c5c32)CC1O)C(=O)NC4=O (stereo not drawn) tested on JAK3 (JH1 and JH2 domain) (Homo sapiens); recorded pIC50 was 7.26

Lab note: compound O=C1NCc2c1c1c3ccccc3n3c1c1c2c2ccccc2n1CC(=C(CO)CO)C3 tested on JAK3 (JH1 and JH2 domain) (Homo sapiens); recorded pIC50 was 7.43
